Record form. Attribute: pIC50. Fill in for each entry.
Tgt: UniProtKB P56817
Sequence (P56817 46-501 limits assumed): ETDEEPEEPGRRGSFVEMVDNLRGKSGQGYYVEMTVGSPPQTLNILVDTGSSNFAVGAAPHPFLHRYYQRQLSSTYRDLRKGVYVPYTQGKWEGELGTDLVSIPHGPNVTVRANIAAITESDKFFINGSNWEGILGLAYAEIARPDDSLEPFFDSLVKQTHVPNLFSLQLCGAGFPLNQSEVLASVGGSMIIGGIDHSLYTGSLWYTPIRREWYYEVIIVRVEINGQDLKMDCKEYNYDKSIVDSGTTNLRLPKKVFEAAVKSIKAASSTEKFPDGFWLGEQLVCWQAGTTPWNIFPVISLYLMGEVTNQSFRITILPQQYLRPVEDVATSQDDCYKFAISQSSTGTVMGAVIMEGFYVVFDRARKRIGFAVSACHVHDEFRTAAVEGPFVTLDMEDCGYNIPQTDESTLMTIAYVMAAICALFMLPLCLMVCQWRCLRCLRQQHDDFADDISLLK
Measurement protocol: BACE1 cell-free assay (fluorescence polarization, synthetic APP substrate);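 further: soluble His-tagged BACE1 purified from transfected CHO-K1 cell media, biotinylated Oregon Green-labelled peptide substrate, 3 h at 37 °C, cleavage followed as change in fluorescence polarization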
Format: biochemical
Measurement conditions: geometric mean of 2-4 determinations; values marked b from a single determination
Counter-ions that a name gives are not always drawn.
Answers are plain numbers, as −log10 of the molar value.

Guide cases for pIC50, answers given:
NC1=N[C@@]2(c3ccc(Cl)cc3F)COCC[C@H]2CS1 (relative stereo) [Example 17, hydrochloride salt]: 4.99
Cc1ccc([C@]23COCC[C@H]2CSC(N)=N3)c(F)c1 (relative stereo) [Example 13, hydrochloride salt]: 5.43
NC1=N[C@@]2(c3ccccc3F)CO[C@@H](COc3ccccc3)C[C@H]2CS1: 6.08
NC1=N[C@@]2(c3ccc(F)cc3F)CO[C@@H](COCc3ccccc3)C[C@H]2CS1 [Example 6, trifluoroacetic acid salt]: 7.49
NC1=N[C@@]2(c3ccccc3F)COCC[C@H]2CS1 (relative stereo): 5.10

Look at each compound and report its pIC50.
1. CCOC[C@H]1C[C@H]2CSC(N)=N[C@@]2(c2ccccc2F)CO1 [Example 9, trifluoroacetic acid salt]
2. CC(C)OC[C@H]1C[C@H]2CSC(N)=N[C@@]2(c2ccccc2F)CO1 [Example 2, trifluoroacetate salt]

1: 6.04; 2: 6.40

The measured values listed here are drawn from patent US8933221B2.
